Values from patent US9150509B2

// values below are reported pIC50
Test system: human adenocarcinoma HT1080
Test: Anti-tumor activity, cell growth inhibition by CellTiter Blue Assay, HT1080
Type: cell-based
Conditions: Homo sapiens, HT-1080, 48 h, HT1080 cells, 48 hours treatment, 0-1 mM, viable cells by CellTiter Blue; read-out: IC50 HT1080
pIC50: −log10 of the molar value.

{"molecule": "O=C(O)CCCCC(CCSc1ccnc2cc(Cl)ccc12)Sc1ccnc2cc(Cl)ccc12 (stereo not shown)", "pIC50": 4.10}
{"molecule": "O=C(O)CCCCC(CCSCc1c(F)c(F)c(F)c(F)c1F)SCc1c(F)c(F)c(F)c(F)c1F (stereo not shown)", "pIC50": 4.22}
{"molecule": "CCSC(CCS)CCCCC(=O)O (stereo not shown)", "pIC50": 3.57}
{"molecule": "CCC(S)(CCCCC(=O)O)CC(S)c1ccccc1 (stereo not shown)", "pIC50": 3.38}
